Catalogue of inhibition readings, one per entry.
target.of.assay: Lysine-specific demethylase 5B (Homo sapiens)
experiment.summary: Inhibition of KDM5B (unknown origin) at 10 uM incubated for 30 mins by HRTF assay relative to control
// units = %; emit number, no label

CN(CCNC(=O)OC(C)(C)C)C(=O)N[C@@H]1CCN(C(=O)c2cc(-c3ccccc3)[nH]n2)C1	83

Q. Please report the recorded inhibition for CC(C)c1cc(C(=O)N2CC[C@@H](NC(=O)NCc3ccco3)C2)n[nH]1 .
A. 100

Q. Follow-up entry: O=C(N[C@@H]1CCN(C(=O)c2cc(-c3ccc(Cl)cc3)[nH]n2)C1)C1CC1
A. 100

Q. Follow-up entry: COc1ccc(-c2cc(C(=O)N3CC[C@@H](NC(=O)C4CC4)C3)n[nH]2)cc1
A. 74

Q. Follow-up entry: O=C(NC1CC1)NC1CCCN(C(=O)c2cc(-c3ccccc3)[nH]n2)C1 (stereo not given)
A. 0

====

experiment.summary: Half life in Sprague-Dawley rat at 10 mg/kg, po measured upto 24 hrs
Assay type: ADME, organism-based
condition.notes: in vivo
quantity.name: half-life (h)
// units = h; emit number, no label

Q. Please report the recorded half-life for CC(C)c1cc(C(=O)N2CC[C@@H](NC(=O)NC3CC3)C2)n[nH]1 .
A. 2.4

====

target.of.assay: Lysine-specific demethylase 5B (Homo sapiens)
experiment.summary: Inhibition of recombinant KDM5B (residues 26 to 770) (unknown origin) transfected in Sf9 cells
quantity.name: pIC50
pIC50 is defined as minus the log10 of a concentration measured in mol/L.

Q. Please report the recorded pIC50 for CCOC(=O)c1ccnc(CNCC(C)N(CC)CCN(C)C)c1 (stereo unspecified) .
A. 7.31

====

experiment.summary: Cmax in Sprague-Dawley rat at 10 mg/kg, po measured upto 24 hrs
Format: ADME, organism-based
Design: dose 10 mg/kg, time < 24 hrs, route po
condition.notes: in vivo
quantity.name: Cmax (ng/mL)
// units = ng/mL; emit number, no label

Q. Please report the recorded Cmax for CC(C)c1cc(C(=O)N2CC[C@@H](NC(=O)NC3CC3)C2)n[nH]1 .
A. 710

====

target.of.assay: UniProtKB Q9UGL1
experiment.summary: Inhibition of KDM5B (unknown origin) at 1 uM incubated for 30 mins by HRTF assay relative to control
Catalogue of inhibition readings, one per entry.
// units = %; emit number, no label

CN(CCNC(=O)NC1CC1)C(=O)c1cc(-c2ccccc2)[nH]n1	0

Q. Query inhibition on UniProtKB Q9UGL1 for CCN(C(=O)N[C@@H]1CCN(C(=O)c2cc(-c3ccccc3)[nH]n2)C1)C1CC1
A. 33

Q. Follow-up entry: O=C(N[C@@H]1CCN(C(=O)NC2CC2)C1)c1cc(-c2ccccc2)[nH]n1
A. 0

Q. Follow-up entry: O=C(NC1CC1)NC1CCCN(C(=O)c2cc(-c3ccccc3)[nH]n2)C1 (stereo not given)
A. 0

Q. Follow-up entry: CN(C(=O)NC1CC1)[C@@H]1CCN(C(=O)c2cc(-c3ccccc3)[nH]n2)C1
A. 55

====

target.of.assay: Lysine-specific demethylase 5B (Homo sapiens, UniProt Q9UGL1)
Sequence (Q9UGL1 whole entry, the tested form may be a part): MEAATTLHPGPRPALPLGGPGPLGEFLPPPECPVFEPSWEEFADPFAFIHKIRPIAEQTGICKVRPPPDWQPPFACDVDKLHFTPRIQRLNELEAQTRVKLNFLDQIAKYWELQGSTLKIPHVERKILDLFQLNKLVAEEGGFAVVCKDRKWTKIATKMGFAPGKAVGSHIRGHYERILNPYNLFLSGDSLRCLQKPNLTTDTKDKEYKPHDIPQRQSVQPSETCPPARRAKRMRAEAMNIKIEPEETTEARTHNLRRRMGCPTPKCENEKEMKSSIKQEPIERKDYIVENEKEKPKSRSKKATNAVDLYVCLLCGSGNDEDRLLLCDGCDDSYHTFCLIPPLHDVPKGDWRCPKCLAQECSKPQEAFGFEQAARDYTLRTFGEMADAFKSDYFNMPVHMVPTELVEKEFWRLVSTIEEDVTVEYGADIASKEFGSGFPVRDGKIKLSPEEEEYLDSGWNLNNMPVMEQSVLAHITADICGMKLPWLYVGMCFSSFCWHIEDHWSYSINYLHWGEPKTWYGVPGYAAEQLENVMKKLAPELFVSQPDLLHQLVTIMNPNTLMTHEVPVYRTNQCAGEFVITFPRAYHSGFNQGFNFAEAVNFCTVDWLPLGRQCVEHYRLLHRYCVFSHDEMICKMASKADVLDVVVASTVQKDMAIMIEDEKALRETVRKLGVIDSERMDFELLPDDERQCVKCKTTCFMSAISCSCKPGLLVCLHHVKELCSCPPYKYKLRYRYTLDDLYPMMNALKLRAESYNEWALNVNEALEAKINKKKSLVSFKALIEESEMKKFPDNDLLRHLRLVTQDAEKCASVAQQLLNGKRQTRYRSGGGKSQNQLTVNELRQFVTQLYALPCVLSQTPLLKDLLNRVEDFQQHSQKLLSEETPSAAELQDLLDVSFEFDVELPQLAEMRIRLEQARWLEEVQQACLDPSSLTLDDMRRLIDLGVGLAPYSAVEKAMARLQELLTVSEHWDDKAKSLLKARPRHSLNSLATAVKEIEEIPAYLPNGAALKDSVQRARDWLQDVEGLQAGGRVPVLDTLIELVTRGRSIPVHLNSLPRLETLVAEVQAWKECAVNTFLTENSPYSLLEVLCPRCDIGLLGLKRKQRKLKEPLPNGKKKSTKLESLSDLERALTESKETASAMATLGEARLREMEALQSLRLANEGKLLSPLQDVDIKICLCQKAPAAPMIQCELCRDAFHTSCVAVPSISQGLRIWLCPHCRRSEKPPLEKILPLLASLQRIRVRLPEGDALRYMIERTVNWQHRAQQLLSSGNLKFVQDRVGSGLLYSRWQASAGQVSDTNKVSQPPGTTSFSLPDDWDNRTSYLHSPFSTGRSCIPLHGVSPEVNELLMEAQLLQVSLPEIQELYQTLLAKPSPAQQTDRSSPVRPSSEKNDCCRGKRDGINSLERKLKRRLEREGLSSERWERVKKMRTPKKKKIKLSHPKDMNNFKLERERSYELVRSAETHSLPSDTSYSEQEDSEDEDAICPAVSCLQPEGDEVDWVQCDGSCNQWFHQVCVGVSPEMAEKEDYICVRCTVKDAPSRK
experiment.summary: Inhibition of KDM5B (unknown origin) incubated for 30 mins by HRTF assay
Catalogue of IC50 readings, one per entry.
// units = nM; emit number, no label

Check out these entries, answers already filled in.
O=C(N[C@@H]1CCN(C(=O)c2cc(-c3ccccc3Cl)[nH]n2)C1)C1CC1	67
CCNC(=O)N[C@@H]1CCN(C(=O)c2cc(-c3ccccc3)[nH]n2)C1	139
O=C(N[C@@H]1CCN(C(=O)c2cc(-c3cccs3)[nH]n2)C1)C1CC1	105
O=C(NC1CC1)N[C@@H]1CCN(C(=O)c2cc(-c3ccccc3)[nH]n2)C1	68
O=C(N[C@@H]1CCN(C(=O)c2cc(-c3ccc(Cl)cc3)[nH]n2)C1)C1CC1	89

Continue with the next compound.
Q. Please report the recorded IC50 for CC(C)c1cc(C(=O)N2CC[C@@H](NC(=O)N3CCCC3)C2)n[nH]1 .
A. 114
